B1: DLC1 (parent)
chain: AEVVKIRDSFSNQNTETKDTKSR

Variants of: B1
testProtocol: protein stability index of a GFP-peptide fusion (GPS, HEK-293T) (PSI 1-6); higher = more stable;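 also: lentivirally expressed fusions sorted by FACS into six bins by GFP to DsRed ratio, PSI derived from sequencing read proportions per bin multiplied by bin number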
conditionLabel: c terminus: native
Quick rule for you: protein stability index at 2 or higher means 1, lower means 0.

residueSequence | labelClass
AEVVKIEDSFSNQNTETKDTKSR [R7E] | 1
AEVVKIRDSFSNQNTRTKDTKSR [E16R] | 1
AEVVKIRDSFSNCNTETKDTKSR [Q13C] | 0
AEVVKIRDSFSNQNKETKDTKSR [T15K] | 1
AFVVKIRDSFSNQNTETKDTKSR [E2F] | 1
AEVVKIRDSFSNQNYETKDTKSR [T15Y] | 0
NEVVKIRDSFSNQNTETKDTKSR [A1N] | 1
AEVVKIRDSFSSQNTETKDTKSR [N12S] | 0
AEVVKIRDSFSNKNTETKDTKSR [Q13K] | 0
AEVVKIRDSFSNQNTETKDTDSR [K21D] | 1
AEVVKQRDSFSNQNTETKDTKSR [I6Q] | 1
AEVVKIRDAFSNQNTETKDTKSR [S9A] | 1
AEVVQIRDSFSNQNTETKDTKSR [K5Q] | 1
AAVVKIRDSFSNQNTETKDTKSR [E2A] | 0
AEVVKIRDSFSNQNTETKDTISR [K21I] | 1
AEVVCIRDSFSNQNTETKDTKSR [K5C] | 1
AEVVKIRDSFSNSNTETKDTKSR [Q13S] | 0
AEVVKIRDSFSNQDTETKDTKSR [N14D] | 1
AEVVKIRDSFSNFNTETKDTKSR [Q13F] | 1
AEVVKIRDSFSNQNTEAKDTKSR [T17A] | 1
AEVVKIRDSFQNQNTETKDTKSR [S11Q] | 1
AEVVKIRDSCSNQNTETKDTKSR [F10C] | 1
